Recorded values, source patent US20180030151A1.

Can you tell me FXa assay OD, 10 nM Ab, 10 nM TFPI for the items I'm about to list?
biological target: recombinant human TFPI (tissue factor pathway inhibitor) (human, UniProt P10646 29-304); assay: cell-based or functional assay
Numbers only.

{"BINDER": "clone 2 (antibody, V domains shown) VH: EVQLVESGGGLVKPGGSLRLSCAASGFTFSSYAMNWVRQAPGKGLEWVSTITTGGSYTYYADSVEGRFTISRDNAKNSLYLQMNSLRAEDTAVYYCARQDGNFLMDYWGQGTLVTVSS VL: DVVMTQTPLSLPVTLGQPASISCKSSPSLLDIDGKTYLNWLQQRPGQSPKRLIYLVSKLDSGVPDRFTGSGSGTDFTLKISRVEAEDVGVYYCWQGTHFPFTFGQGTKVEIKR", "FXa assay OD, 10 nM Ab, 10 nM TFPI": 0.602}

Below: the item to evaluate.
Challenge: Give its FXa assay OD, 10 nM Ab, 10 nM TFPI value. Item: clone 7 (antibody, V domains shown) VH: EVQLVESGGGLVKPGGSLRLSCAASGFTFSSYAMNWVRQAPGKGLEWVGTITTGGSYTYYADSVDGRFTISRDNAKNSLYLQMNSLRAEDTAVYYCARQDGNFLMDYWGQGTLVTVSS VL: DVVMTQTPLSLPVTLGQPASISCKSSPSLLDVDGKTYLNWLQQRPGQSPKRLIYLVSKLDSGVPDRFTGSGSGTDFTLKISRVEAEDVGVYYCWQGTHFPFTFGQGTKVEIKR
Response given: 0.549
